system.tested: T1, TGFβ3 (R&D Systems)
T1 sequence (P10600 301-412, species assumed, looked up): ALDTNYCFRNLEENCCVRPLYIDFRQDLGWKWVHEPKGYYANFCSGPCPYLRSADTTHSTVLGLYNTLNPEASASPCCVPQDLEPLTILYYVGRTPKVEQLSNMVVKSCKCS
assay.comment: SPR (Biacore T200), TGFβ amine-coupled to chip, 1:1 fit
Exercise: for every item that follows, state its recorded Kd.
Answers are plain numbers, in nM.

- binder: "Felinized anti-TGFβ1,2,3 antibody VH2.2 - VL3 (antibody, V domains shown) VH: QVLLVQSGADVRKPGASVKIFCKASGYTFSSNVMHWVRQTPAQGFEWMGSVIPIVDIATYARRFQGRLVLTADTSTNTAYMELRSLKSADTAVYYCARTLGLVLDAMDYWGQGSLVTVSS VL: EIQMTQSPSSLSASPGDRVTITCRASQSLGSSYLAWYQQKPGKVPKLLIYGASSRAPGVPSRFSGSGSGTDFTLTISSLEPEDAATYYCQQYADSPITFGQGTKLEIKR"
  units.of.measure: "nM"
  Kd: 3.49

I am curious: what Kd value has been reported for Caninized anti-TGFβ1,2,3 antibody VH4.7 - VL2 (antibody, V domains shown) VH: QVQLVQSGAEVKKPGSSVKVSCKASGYTFSSNVISWVRQAPGKGLQWVGGVIPIVDIANYAQRFKGRVTITADESTSTTYMELSSLRSEDTAVYYCASTLGLVLDAMDYWGQGTLVTVSS VL: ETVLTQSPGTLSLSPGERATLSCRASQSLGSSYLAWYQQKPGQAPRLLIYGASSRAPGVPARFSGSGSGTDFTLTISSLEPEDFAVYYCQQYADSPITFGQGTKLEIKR ?
1.2
